# measuredOn: human recombinant GABAA α5β3γ2 receptor (Homo sapiens (Human), UniProt P18507+P31644)
# Sequence (P31644 32-462): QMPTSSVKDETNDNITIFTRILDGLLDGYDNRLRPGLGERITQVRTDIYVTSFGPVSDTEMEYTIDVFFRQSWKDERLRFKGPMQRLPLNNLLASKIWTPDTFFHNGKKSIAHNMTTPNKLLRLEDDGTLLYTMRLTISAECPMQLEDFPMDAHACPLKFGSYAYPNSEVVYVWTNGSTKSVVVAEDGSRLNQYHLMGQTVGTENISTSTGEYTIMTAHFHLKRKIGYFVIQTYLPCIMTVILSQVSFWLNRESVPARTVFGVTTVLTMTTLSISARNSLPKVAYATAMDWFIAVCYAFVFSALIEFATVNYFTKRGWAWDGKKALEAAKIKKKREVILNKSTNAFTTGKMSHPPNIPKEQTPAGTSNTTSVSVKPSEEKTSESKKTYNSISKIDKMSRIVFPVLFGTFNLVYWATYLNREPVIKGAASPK
# Sequence (P28472 26-473 partner): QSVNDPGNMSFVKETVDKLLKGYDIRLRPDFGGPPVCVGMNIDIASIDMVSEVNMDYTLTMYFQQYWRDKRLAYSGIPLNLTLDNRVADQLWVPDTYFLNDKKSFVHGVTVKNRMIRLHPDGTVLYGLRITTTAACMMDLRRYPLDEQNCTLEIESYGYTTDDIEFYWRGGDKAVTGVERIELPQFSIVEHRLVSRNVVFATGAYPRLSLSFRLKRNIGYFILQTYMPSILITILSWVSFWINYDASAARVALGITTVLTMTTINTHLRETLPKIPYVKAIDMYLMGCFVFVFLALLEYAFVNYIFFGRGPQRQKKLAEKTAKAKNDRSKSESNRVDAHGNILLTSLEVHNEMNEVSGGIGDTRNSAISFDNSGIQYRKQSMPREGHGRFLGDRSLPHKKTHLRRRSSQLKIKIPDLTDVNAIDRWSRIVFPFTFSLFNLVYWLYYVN
# Sequence (P18507 40-475): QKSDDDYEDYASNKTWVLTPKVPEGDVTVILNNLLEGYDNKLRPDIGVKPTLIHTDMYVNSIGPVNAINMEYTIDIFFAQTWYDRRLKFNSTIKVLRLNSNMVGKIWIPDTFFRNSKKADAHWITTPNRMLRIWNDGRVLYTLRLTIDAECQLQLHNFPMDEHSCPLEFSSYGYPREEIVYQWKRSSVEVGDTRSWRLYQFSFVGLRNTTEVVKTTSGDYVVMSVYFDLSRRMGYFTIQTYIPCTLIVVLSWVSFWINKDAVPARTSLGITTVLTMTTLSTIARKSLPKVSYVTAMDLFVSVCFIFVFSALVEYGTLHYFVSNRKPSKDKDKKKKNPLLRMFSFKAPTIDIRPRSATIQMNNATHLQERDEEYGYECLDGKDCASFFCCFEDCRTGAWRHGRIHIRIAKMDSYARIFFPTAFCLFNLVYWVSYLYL
# assayExplanation: Functional assay, QPatch automated patch clamp, GABA-evoked currents
# Type: cell-based
# settings: test compound 10 μM, 1 μM GABA, HEK293 cells, percentage modulation of peak current
# Experimental: Human HEK293 cell lines expressing GABAA α1β3γ2 and GABAAα5β3γ2 receptors were used in functional assays using the QPatch automated patch clamp system. […] The percentage modulation was calculated from the comparison of GABA-evoked peak current amplitudes in the presence and absence of the test compound.
endpointName: hGABAA α5 efficacy (%)
Provide the reading as a plain figure in %.

# count of solved cases: 7
- molecule: "Cc1nnn(-c2ccc(F)cc2)c1COc1ccc2c(n1)CCN(C(=O)C1CCS(=O)(=O)CC1)C2"
  u: "%"
  hGABAA α5 efficacy: "−47"
- molecule: "Cc1onc(-c2ccc(F)cc2)c1COc1ccc2c(n1)CCN(C(=O)C1CC(=O)N(C)C1)C2 (centres unmarked)"
  u: "%"
  hGABAA α5 efficacy: "−34"
- molecule: "Cc1nnn(-c2ccc(Cl)cc2)c1COc1ccc2c(n1)CCN(C(=O)C1CCOC1)C2 (centres unmarked)"
  u: "%"
  hGABAA α5 efficacy: "−25"
- molecule: "Cc1nnn(-c2ccc(F)cc2)c1COc1ccc2c(n1)CN(C(=O)C1CC1)C2"
  u: "%"
  hGABAA α5 efficacy: "−34"
- molecule: "CC(=O)N1Cc2ccc(OCc3c(C)nnn3-c3ccc(F)cc3)nc2C1"
  u: "%"
  hGABAA α5 efficacy: "−30"
- molecule: "Cc1nnn(-c2ccc(F)cc2)c1COc1ccc2c(n1)CCN(C(=O)NC1CCOC1)C2 (centres unmarked)"
  u: "%"
  hGABAA α5 efficacy: "−34"
- molecule: "CC(=O)N1CCc2nc(OCc3c(C)nnn3-c3ccc(F)cc3)ccc2C1"
  u: "%"
  hGABAA α5 efficacy: "−36"

Okay, now this molecule:
-- ask Supply hGABAA α5 efficacy value. Item: Cc1onc(-c2ccc(F)cc2)c1COc1ccc2c(n1)CCN(C(=O)C1CCOCC1)C2
-- reply −37

These entries and their values trace back to patent US12370182B2.
